test system: P-glycoprotein; experiment: P-glycoprotein-mediated transport in human Calu3 cells expressing P-glycoprotein assessed as maximum apparent permeability from apical to basolateral side at 50 uM; assay type: ADME, cell-based, Calu-3
measured endpoint: Papp A→B at 50 µM (×10⁻⁶ cm/s)
All answers are understood in ×10⁻⁶ cm/s, so give the number only.

IN: Requested read-out: Papp A→B at 50 µM. Entry: COc1c(N2C[C@@H]3CCCN[C@@H]3C2)c(F)cc2c(=O)c(C(=O)O)cn(C3CC3)c12 [MOXIFLOXACIN]
OUT: 5.25

###

tested on: P-glycoprotein; assay: P-glycoprotein-mediated transport in human Calu3 cells expressing P-glycoprotein assessed as maximum apparent permeability from apical to basolateral side at 50 uM in presence of in presence of 10 uM of p-glycoprotein and MRP transport inducer rifampin; format: ADME, cell-based, Calu-3
measured endpoint: Papp A→B at 50 µM
// unit must come after the numeric part

IN: Requested read-out: Papp A→B at 50 µM. Entry: `COc1c(N2C[C@@H]3CCCN[C@@H]3C2)c(F)cc2c(=O)c(C(=O)O)cn(C3CC3)c12`
OUT: 4.35 ×10⁻⁶ cm/s

###

test system: P-glycoprotein; assay: P-glycoprotein-mediated transport in human Calu3 cells expressing P-glycoprotein assessed as minimum apparent permeability from basolateral to apical side; format: ADME, cell-based, Calu-3
measured endpoint: Papp B→A (×10⁻⁶ cm/s)
All answers are understood in ×10⁻⁶ cm/s, so give the number only.

IN: Requested read-out: Papp B→A. Entry: `COc1c(N2C[C@@H]3CCCN[C@@H]3C2)c(F)cc2c(=O)c(C(=O)O)cn(C3CC3)c12`
OUT: 7.9

###

assay: Cmax in healthy human at 400 […]; type: ADME, organism-based; settings: in vivo
measured endpoint: Cmax (ng/mL)
All answers are understood in ng/mL, so give the number only.

IN: Requested read-out: Cmax. Entry: `COc1c(N2C[C@@H]3CCCN[C@@H]3C2)c(F)cc2c(=O)c(C(=O)O)cn(C3CC3)c12`
OUT: 5000

###

test system: P-glycoprotein; assay: P-glycoprotein-mediated transport in human Calu3 cells expressing P-glycoprotein assessed as maximum apparent permeability from basolateral to apical side at 50 uM; type: ADME, cell-based, Calu-3
measured endpoint: Papp B→A at 50 µM
// unit must come after the numeric part

IN: Requested read-out: Papp B→A at 50 µM. Entry: `COc1c(N2C[C@@H]3CCCN[C@@H]3C2)c(F)cc2c(=O)c(C(=O)O)cn(C3CC3)c12`
OUT: 10.5 ×10⁻⁶ cm/s

###

system: P-glycoprotein; assay: P-glycoprotein-mediated transport in human Calu3 cells expressing P-glycoprotein assessed as maximum apparent permeability from basolateral to apical side; type: ADME, cell-based, Calu-3
measured endpoint: Papp B→A (×10⁻⁶ cm/s)
All answers are understood in ×10⁻⁶ cm/s, so give the number only.

IN: Requested read-out: Papp B→A. Entry: COc1c(N2C[C@@H]3CCCN[C@@H]3C2)c(F)cc2c(=O)c(C(=O)O)cn(C3CC3)c12 [MOXIFLOXACIN]
OUT: 13.6

###

system: P-glycoprotein; assay: Activity at P-glycoprotein in human Calu3 cells; type: ADME, cell-based, Calu-3
measured endpoint: Km

IN: Requested read-out: Km. Entry: COc1c(N2C[C@@H]3CCCN[C@@H]3C2)c(F)cc2c(=O)c(C(=O)O)cn(C3CC3)c12 [MOXIFLOXACIN]
OUT: 64.6 µg/mL

###

test: Apparent passive permeability across human Calu3 cells at 350 ug/ml; format: ADME, cell-based, Calu-3
measured endpoint: Papp at 350 ug/ml (×10⁻⁶ cm/s)
All answers are understood in ×10⁻⁶ cm/s, so give the number only.

IN: Requested read-out: Papp at 350 ug/ml. Entry: COc1c(N2C[C@@H]3CCCN[C@@H]3C2)c(F)cc2c(=O)c(C(=O)O)cn(C3CC3)c12 [MOXIFLOXACIN]
OUT: 7.9
